System: HCT-15
procedure text: Cytotoxicity against human HCT15 cells assessed as cell growth inhibition at 50 uM after 48 hrs by SRB assay relative to control
Format: functional
experimental setup: HCT-15, 48 h, read-out: GI
reported endpoint: inhibition of growth at 50 µM (%)
Please respond with the number in % and leave the unit unwritten.

The examples below pair each entry with its known result.
CCCCOP(=O)(OCCCC)C1c2c(ccc(OC)c2OC)-c2ccc3cc4c(cc3c2N1C)OCO4 (centres undefined)
100
CCCCOP(=O)(OCCCC)C1c2c(ccc3c2OCO3)-c2ccc3cc4c(cc3c2N1C)OCO4 (centres undefined)
100
COC(=O)C(C(=O)OC)C1c2c(ccc3c2OCO3)-c2ccc3cc4c(cc3c2N1C)OCO4 (centres undefined)
100
COC(=O)C(C(=O)OC)C1c2c(ccc(OC)c2OC)-c2ccc3cc4c(cc3c2N1C)OCO4 (centres undefined)
100
COc1ccc2c(c1OC)C(C(C)[N+](=O)[O-])N(C)c1c-2ccc2cc3c(cc12)OCO3 (centres undefined)
100

Q. Requested field: inhibition of growth at 50 µM. Item: COc1ccc2c(c1OC)C(C#Cc1ccccc1)N(C)c1c-2ccc2cc3c(cc12)OCO3 (centres undefined)
A. 30

Q. Requested field: inhibition of growth at 50 µM. Item: CCOP(=O)(OCC)C1c2ccccc2-c2ccc3ccccc3c2N1C (centres undefined)
A. 100

Q. Requested field: inhibition of growth at 50 µM. Item: `CN1Cc2ccccc2-c2ccc3ccccc3c21`
A. 49.1

Q. Requested field: inhibition of growth at 50 µM. Item: CCOC(=O)C(C(=O)OCC)C1c2c(ccc3c2OCO3)-c2ccc3cc4c(cc3c2N1C)OCO4 (centres undefined)
A. 100
